Data origin: PubChem BioAssay AID1963973

# System: 883617-216-R-J1-PDC tumor spheroids, viability
# procedureDetails: Anticancer human tumor 883617-216-R-J1-PDC patient-derived bladder carcinoma cell line growth inhibition [PI3K]
# conditions: second compound 0.0316 µM; first compound 0.00316 µM; active compounds read low; spheroids with HUVEC and MSC
# From the text: Combinatorial screen of targeted agents with the PI3K inhibitors inavolisib, alpelisib, duvelisib, and copanlisib in multi-cell type tumor spheroids A high-throughput screen of multi-cell type tumor spheroids was designed to identify active combinations of targeted small molecules and PI3K pathway inhibitors. […] Compounds. […] If the clinical Cmax for an agent had not been determined, the highest concentration tested was 10 microM. […]

compound | viability, T/C (%)
Cn1ncnc1[C@H]1c2n[nH]c(=O)c3cc(F)cc(c23)N[C@@H]1c1ccc(F)cc1 + COc1c(OCCCN2CCOCC2)ccc2c3n(c(=NC(=O)c4cnc(N)nc4)nc12)CCN3 | 35.3
Cn1ncnc1[C@H]1c2n[nH]c(=O)c3cc(F)cc(c23)N[C@@H]1c1ccc(F)cc1 + CC(Nc1ccc2c(c1)OCCn1cc(N3C(=O)OCC3C(F)F)nc1-2)C(N)=O | 54.2
CCN1CCN(Cc2ccc(Nc3ncc(F)c(-c4cc(F)c5nc(C)n(C(C)C)c5c4)n3)nc2)CC1 + Cc1nc(NC(=O)N2CCCC2C(N)=O)sc1-c1ccnc(C(C)(C)C(F)(F)F)c1 | 75.7
CC(=O)c1c(C)c2cnc(Nc3ccc(N4CCNCC4)cn3)nc2n(C2CCCC2)c1=O + COc1c(OCCCN2CCOCC2)ccc2c3n(c(=NC(=O)c4cnc(N)nc4)nc12)CCN3 | 30.2
CCN1CCN(Cc2ccc(Nc3ncc(F)c(-c4cc(F)c5nc(C)n(C(C)C)c5c4)n3)nc2)CC1 + CC(Nc1ccc2c(c1)OCCn1cc(N3C(=O)OCC3C(F)F)nc1-2)C(N)=O | 57
CC(C)n1nc(-c2ccc3oc(N)nc3c2)c2c(N)ncnc21 + Cc1nc(NC(=O)N2CCCC2C(N)=O)sc1-c1ccnc(C(C)(C)C(F)(F)F)c1 | 69.5
CC(=O)c1c(C)c2cnc(Nc3ccc(N4CCNCC4)cn3)nc2n(C2CCCC2)c1=O + Cc1nc(NC(=O)N2CCCC2C(N)=O)sc1-c1ccnc(C(C)(C)C(F)(F)F)c1 | 82.5

----------
# Test system: 883617-216-R-J1-PDC tumor spheroids, viability
# procedureDetails: Anticancer human tumor 883617-216-R-J1-PDC cell line growth inhibition [PI3K];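 note: spheroids exposed to agents for 7 days before the viability read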
# conditions: second compound 1 µM; first compound 0.1 µM; active compounds read low; spheroids with HUVEC and MSC
Response field label takes 1 when viability, T/C is strictly below 3% and -1 in all other cases.

molecule | label
C[C@@H](NC(=O)c1ncnc(N)c1Cl)c1ncc(C(=O)Nc2cc(C(F)(F)F)c(Cl)cn2)s1 + Cc1nc(NC(=O)N2CCCC2C(N)=O)sc1-c1ccnc(C(C)(C)C(F)(F)F)c1 | -1
C=CC(=O)N1CCN(c2nc(=O)n(-c3c(C)ccnc3C(C)C)c3nc(-c4c(O)cccc4F)c(F)cc23)C(C)C1 (stereo not given) + COc1c(OCCCN2CCOCC2)ccc2c3n(c(=NC(=O)c4cnc(N)nc4)nc12)CCN3 | 1
Cn1nccc1Nc1nccc(-c2ccn(C(CO)c3ccc(Cl)c(F)c3)c(=O)c2)n1 (stereo not given) + CC(Nc1ccc2c(c1)OCCn1cc(N3C(=O)OCC3C(F)F)nc1-2)C(N)=O | -1
Cn1ncc(Cl)c1-c1cc(C(=O)NC(CN)Cc2cccc(F)c2)sc1Cl (stereo not given) + CC(Nc1ccc2c(c1)OCCn1cc(N3C(=O)OCC3C(F)F)nc1-2)C(N)=O | -1
